- Test system: Candida albicans (strain n° CA980001)
- MEASUREMENT_PROTOCOL: Antifungal activity on a clinical strain of Candida albicans (MTT colorimetric microplate test)
- Format: cell-based
- MEASUREMENT_CONTEXT: summary of Tables 27 to 40
REPORTED_ENDPOINT: activity of inhibition of Candida albicans (in words)

CCn1c(C(c2ccc(F)cc2)n2ccnc2)c(C)c2ccccc21.O=[N+]([O-])O (centres unmarked) [31n] :: significant activity
CCn1ccc2cc(Br)cc(C(c3ccc(F)cc3)n3ccnc3)c21 (centres unmarked) :: most active
Fc1ccc(Cn2cc(Cn3ccnc3)c3cccnc32)cc1 :: most active
CCn1ccc2cccc(C(c3ccc(F)cc3)n3ccnc3)c21 (centres unmarked) :: most active
CCCCC(c1cn(Cc2ccc(Cl)cc2)c2ccccc12)n1ccnc1.O=C(O)/C=C/C(=O)O (centres unmarked) [66f] :: significant activity

Report the value of activity of inhibition of Candida albicans (in words) obtained on Candida albicans (strain n° CA980001) for OC(Cn1ccnc1)(Cn1ccc2ccccc21)c1ccc(Br)cc1 (centres unmarked) .
most active

Report the value of activity of inhibition of Candida albicans (in words) obtained on Candida albicans (strain n° CA980001) for OC(Cn1ccnc1)(Cn1ccc2ccccc21)c1ccc(Cl)cc1 (centres unmarked) .
most active

Report the value of activity of inhibition of Candida albicans (in words) obtained on Candida albicans (strain n° CA980001) for OC(Cn1ccnc1)(Cn1ccc2ccccc21)c1ccc(Cl)cc1Cl (centres unmarked) .
most active

----------
- Test system: Candida albicans (strain n° CA980001)
- MEASUREMENT_PROTOCOL: Antifungal activity on a clinical strain of Candida albicans (MTT colorimetric microplate test)
- Assay type: cell-based
- MEASUREMENT_CONTEXT: strain CA980001
Property: CMI or CI80 Candida albicans (CA980001); scope: individual compounds
Supply the numeric figure in µg/mL, leaving out any unit text.

Tell me CMI or CI80 Candida albicans (CA980001) reported for CC(=O)N1CCN(c2ccc(OCC3COC(Cn4ccnc4)(c4ccc(Cl)cc4Cl)O3)cc2)CC1 (stereo not shown) [Ketoconazole, ketoconazole, reference compound]
0.005

Tell me CMI or CI80 Candida albicans (CA980001) reported for OC(Cn1ccnc1)(Cn1ccc2ccccc21)c1ccc(Br)cc1 (stereo not shown) [compound 73]
0.02

Tell me CMI or CI80 Candida albicans (CA980001) reported for CCn1ccc2cccc(C(c3cccc(Cl)c3)n3ccnc3)c21.O=[N+]([O-])O (stereo not shown) [55n]
0.039

Tell me CMI or CI80 Candida albicans (CA980001) reported for OC(Cn1ccnc1)(Cn1ccc2ccccc21)c1ccc(F)cc1F (stereo not shown) [compound 77]
0.00035

Tell me CMI or CI80 Candida albicans (CA980001) reported for OC(Cn1ccnc1)(Cn1ccc2ccccc21)c1ccc(Cl)cc1 (stereo not shown) [compound 74]
0.02

Tell me CMI or CI80 Candida albicans (CA980001) reported for OC(Cn1ccnc1)(Cn1ccc2ccccc21)c1ccc(F)cc1 (stereo not shown) [compound 76]
0.03

Tell me CMI or CI80 Candida albicans (CA980001) reported for CCn1ccc2cccc(C(c3ccc(Cl)cc3)n3ccnc3)c21.O=[N+]([O-])O (stereo not shown) [56n]
0.16

----------
- Tested on: Candida albicans (strain n° CA980001)
- MEASUREMENT_PROTOCOL: Antifungal activity on a clinical strain of Candida albicans (MTT colorimetric microplate test)
- Type: cell-based
- MEASUREMENT_CONTEXT: Candida albicans; strain CA980001; 24 h at 37° C., MTT; read-out: CMI or CI80 Candida albicans (CA980001)
Property: log10 of MIC; scope: individual molecules
Plainly stated, the numbers are log10 of MIC given in µM.

// solved cases for log10 of MIC follow
Fc1ccc(Cn2cc(Cn3ccnc3)c3cccnc32)cc1 [Cpsé 88] :: -0.15
Fc1ccc(Cn2ccc3cc(-c4nnn[nH]4)ccc32)cc1 [Cpsé 2] :: 1.81
OC(Cn1cncn1)(Cn1cncn1)c1ccc(F)cc1F [Fluconazole, fluconazole, reference compound] :: -1.15
CCn1c(C(c2ccc(F)cc2)n2ccnc2)c(C)c2ccccc21 (stereo not shown) [Cpsé 31] :: 1.76

Tell me log10 of MIC reported for Fc1ccc(Cn2c(Cn3ccnc3)cc3ccccc32)cc1 [Cpsé 3n]
1.91

----------
Property: CI50 Leishmania mexicana Promastigotes; scope: individual compounds
- Test system: promastigote stage of Leishmania mexicana
- MEASUREMENT_PROTOCOL: Antiparasitic activity on the promastigote form of Leishmania (MTT)
- Format: cell-based
- MEASUREMENT_CONTEXT: promastigotes; 36 h at 26° C., MTT
Supply the numeric figure in µg/mL, leaving out any unit text.

Tell me CI50 Leishmania mexicana Promastigotes reported for Fc1ccc2c(c1)c(Cn1ccnc1)cn2Cc1ccc(Cl)cc1 [compound 15]
5.4

Tell me CI50 Leishmania mexicana Promastigotes reported for Fc1cccc(Cn2cc(Cn3ccnc3)c3ccccc32)c1 [compound 5]
9.2

Tell me CI50 Leishmania mexicana Promastigotes reported for CCN1CCc2cccc(C(c3cccc(Cl)c3)n3ccnc3)c21 (racemic) [compound 48]
1

Tell me CI50 Leishmania mexicana Promastigotes reported for CCN1CCc2cccc(C(c3ccc(F)cc3)n3ccnc3)c21 (centres unmarked) [compound 50]
0.24

Tell me CI50 Leishmania mexicana Promastigotes reported for Fc1ccc(Cn2cc(Cn3ccnc3)c3ccccc32)c(F)c1 [compound 6]
6

----------
- System: Candida krusei (4 strains)
- MEASUREMENT_PROTOCOL: Antifungal activity in vitro on clinical strains of Candida: krusei (4 strains)
- Format: cell-based
- MEASUREMENT_CONTEXT: strain CK980001 (Candida krusei)
REPORTED_ENDPOINT: CI80 on clinical strains of Candida (µM)
Supply the numeric figure in µM, leaving out any unit text.

OC(Cn1ccnc1)(Cn1ccc2ccccc21)c1ccc(Cl)cc1Cl (centres unmarked) [compound 75] :: 0.62
OC(Cn1ccnc1)(Cn1ccc2ccccc21)c1ccc(Br)cc1 (centres unmarked) [compound 73] :: 0.65
OC(Cn1ccnc1)(Cn1ccc2ccccc21)c1ccc(F)cc1 (centres unmarked) [compound 76] :: 65.38

Lab note: next compound to report on.
Tell me CI80 on clinical strains of Candida reported for OC(Cn1ccnc1)(Cn1ccc2ccccc21)c1ccc(Cl)cc1 (centres unmarked) [compound 74]
59.29
